- System: Vero E6 infected with SARS-CoV-2
- Protocol Notes: inhibition of SARS-CoV-2 cytopathic effect; higher = more antiviral protection, active = above 15
- Measurement Context: 10000 nM; 48 h
Each entry below carries its recorded inhibition of SARS-CoV-2 cytopathic effect.
Give just the number in %; leave the unit off.

CNC[C@H](O)c1ccc(O)c(O)c1 [epinephrine] : -0.94
COc1ccc(CCN(C)CCc2ccc(OC)c(OC)c2)cc1OC : 3.64
COc1ccc2c(O[C@@H]3C[C@H]4C(=O)N[C@]5(C(=O)NS(=O)(=O)C6CC6)C[C@H]5/C=C\CCCCN(C)C(=O)[C@@H]4C3)cc(-c3nc(C(C)C)cs3)nc2c1C : 2.37
c1ccc2c(c1)CCCC2C1=NCCN1 (stereo not drawn) [tetrahydrozoline] : 0.27
CN(C)C(=O)CCSC(SCCC(=O)O)c1cccc(/C=C/c2ccc3ccc(Cl)cc3n2)c1 (stereo not drawn) : 5.11
COc1ccccc1N1CCN(CCCNc2cc(=O)n(C)c(=O)n2C)CC1 : -0.1

Could you now consider this next compound?
Request: Any idea what inhibition of SARS-CoV-2 cytopathic effect was measured for `Cc1noc2c1-c1ccccc1C(c1ccc(Cl)cc1)=N[C@H]2CC(N)=O` ?
Response: -11.1

###

- Tested on: Vero E6 infected with SARS-CoV-2
- Protocol Notes: inhibition of SARS-CoV-2 cytopathic effect; higher = more antiviral protection, active = above 15
- Measurement Context: 100 nM; 48 h
Each entry below carries its recorded inhibition of SARS-CoV-2 cytopathic effect.
Give just the number in %; leave the unit off.

COc1cc(N)c(Cl)cc1C(=O)OCCCN1CCCCC1 : 3.25
Nc1ncn([C@H]2C[C@H](O)[C@@H](CO)O2)c(=O)n1 : 4.5
COc1ccc(C2=N[C@@H](c3ccc(Cl)cc3)[C@@H](c3ccc(Cl)cc3)N2C(=O)N2CCNC(=O)C2)c(OC(C)C)c1 : 5.23
CC(C)(C)C(=O)OCC(=O)[C@H]1CC[C@H]2[C@@H]3CCC4=CC(=O)CC[C@]4(C)[C@H]3CC[C@]12C [desoxycorticosterone-pivalate] : -0.4
Cc1cc(OI)c(C(C)C)cc1-c1cc(C(C)C)c(OI)cc1C [thymol-iodide] : -0.16

Request: Please state recorded inhibition of SARS-CoV-2 cytopathic effect (tested on Vero E6 infected with SARS-CoV-2) of COP(=O)(OC)OC(c1ccc(Cl)cc1)P(=O)(OC)OC (stereo not drawn) [mifobate]
Response: -3.08

Request: Please state recorded inhibition of SARS-CoV-2 cytopathic effect (tested on Vero E6 infected with SARS-CoV-2) of `CO[C@@H]1[C@@H](OC(N)=O)[C@@H](O)[C@H](Oc2ccc3c(O)c(NC(=O)c4ccc(O)c(CC=C(C)C)c4)c(=O)oc3c2C)OC1(C)C`
Response: 2.34

Request: Please state recorded inhibition of SARS-CoV-2 cytopathic effect (tested on Vero E6 infected with SARS-CoV-2) of `N#Cc1ccccc1-c1cc(-c2ccccn2)cn(-c2ccccc2)c1=O`
Response: 4.1

###

- System: Vero E6 infected with SARS-CoV-2
- Protocol Notes: morphology score (similarity to uninfected cells); higher = more like uninfected cells
- Measurement Context: 24 h
Experimental Readout: morphology score

Some solved entries appear below for comparison.
CCN(CC)CCNc1ccc(CO)c2sc3ccccc3c(=O)c12 [hycanthone] (0.833333 µM) : 0.244
Cc1sc(C)c2c1CCC=C2c1c[nH]cn1 (10 µM) : 0.165
COc1ccc2nc3cc(Cl)ccc3c(Nc3cc(CN4CCCC4)c(O)c(CN4CCCC4)c3)c2n1 [pyronaridine] (0.833333 µM) : 0.282
CNC(=O)c1ccccc1Sc1ccc2c(/C=C/c3ccccn3)n[nH]c2c1 [axitinib] (10 µM) : 0.563
Nc1cc2c3ccccc3ccc2c2ccccc12 [6-aminochrysene] (10 µM) : 0.144

Request: Any idea what morphology score was measured for O=C(Nc1ccc(C(O)(C(F)(F)F)C(F)(F)F)cc1)c1ccc(C(F)(F)F)cc1 (10 µM) ?
Response: 0.265

Request: Any idea what morphology score was measured for CCN1CCN(c2ccc(Nc3cc(N(C)C(=O)Nc4c(Cl)c(OC)cc(OC)c4Cl)ncn3)cc2)CC1 (0.833333 µM) ?
Response: -0.0528

Request: Any idea what morphology score was measured for CCOc1nc2cccc(C(=O)O)c2n1Cc1ccc(-c2ccccc2-c2nnn[nH]2)cc1 [candesartan] (10 µM) ?
Response: 0.175

###

- Tested on: Vero E6 infected with SARS-CoV-2
- Protocol Notes: inhibition of SARS-CoV-2 cytopathic effect; higher = more antiviral protection, active = above 15
- Measurement Context: 10000 nM; 48 h
Respond using exactly one of the listed classes: true for active, false for inactive

CCNC(=O)C[C@@H]1N=C(c2ccc(Cl)cc2)c2cc(OC)ccc2-n2c(C)nnc21 : false

Request: Query: recorded result category for CCN(CC)CCNC(=O)COc1ccc(OC)cc1 [mefexamide] in this test
Response: false

###

Each entry below carries its recorded SARS-CoV-2 infection rate.
- Test system: Vero E6 infected with SARS-CoV-2
- Protocol Notes: SARS-CoV-2 infection rate relative to infected DMSO; higher = more infection, active = 60 or less
- Measurement Context: 24 h
Give just the number in %; leave the unit off.

CNCc1ccc(-c2[nH]c3cc(F)cc4c3c2CCNC4=O)cc1 [rucaparib] (10 µM) : 83

Request: Any idea what SARS-CoV-2 infection rate was measured for CC1(C)S[C@@H]2[C@H](NC(=O)[C@H](NC(=O)N3CCN(S(C)(=O)=O)C3=O)c3ccccc3)C(=O)N2[C@H]1C(=O)O [mezlocillin] (10 µM) ?
Response: 97

Request: Any idea what SARS-CoV-2 infection rate was measured for Nc1cccc(-c2cc3c(Oc4cccc(O)c4)ncnc3[nH]2)c1 (0.833333 µM) ?
Response: 104

Request: Any idea what SARS-CoV-2 infection rate was measured for NC12CC3CC(CC(C3)C1)C2 [amantadine] (10 µM) ?
Response: 110

Request: Any idea what SARS-CoV-2 infection rate was measured for O=C(NC1CCN(CCCCC2(C(=O)NCC(F)(F)F)c3ccccc3-c3ccccc32)CC1)c1ccccc1-c1ccc(C(F)(F)F)cc1 [lomitapide] (0.833333 µM) ?
Response: 87.5

Request: Any idea what SARS-CoV-2 infection rate was measured for c1ccc2c(c1)CCCc1cc(NCCN3CCOCC3)nnc1-2 (10 µM) ?
Response: 116

Request: Any idea what SARS-CoV-2 infection rate was measured for C=C(C)[C@@H]1CC[C@]2(CO)CC[C@]3(C)[C@H](CC[C@@H]4[C@@]5(C)CC[C@H](O)C(C)(C)[C@@H]5CC[C@]43C)[C@@H]12 (10 µM) ?
Response: 99.5

Request: Any idea what SARS-CoV-2 infection rate was measured for N[C@@H](Cc1c[nH]c2ccc(O)cc12)C(=O)O [5-hydroxytryptophan] (10 µM) ?
Response: 104

Request: Any idea what SARS-CoV-2 infection rate was measured for Cc1ccc(-c2n[nH]c3c2C(c2cccc(O)c2)N(c2ccc(C(=O)O)cc2)C3=O)cc1 (stereo unspecified) (10 µM) ?
Response: 91.5

Request: Any idea what SARS-CoV-2 infection rate was measured for O=C(O)CNC(=O)C(CS)Cc1ccccc1 (stereo unspecified) [thiorphan] (10 µM) ?
Response: 98.5

Request: Any idea what SARS-CoV-2 infection rate was measured for Nc1ncnc2c1ncn2[C@@H]1O[C@H](COP(=O)(O)OP(=O)(O)OP(=O)(O)OP(=O)(O)OC[C@H]2O[C@@H](n3cnc4c(N)ncnc43)[C@H](O)[C@@H]2O)[C@@H](O)[C@H]1O [diadenosine-tetraphosphate] (10 µM) ?
Response: 108

Request: Any idea what SARS-CoV-2 infection rate was measured for O=C(NC[C@H](O)CO)c1ccncc1Nc1ccc(I)cc1F (0.833333 µM) ?
Response: 114

###

Each entry below carries its recorded inhibition of SARS-CoV-2 cytopathic effect.
- System: Vero E6 infected with SARS-CoV-2
- Protocol Notes: inhibition of SARS-CoV-2 cytopathic effect; higher = more antiviral protection, active = above 15
- Measurement Context: 833.33 nM; 48 h
Give just the number in %; leave the unit off.

Some solved entries appear below for comparison.
CCCCCCCCCCCCCCCCCCCCCCO : -7.91
COC(=O)[C@]12CCC(C)(C)C[C@H]1[C@H]1C(=O)C=C3[C@@]4(C)C=C(C#N)C(=O)C(C)(C)[C@@H]4CC[C@@]3(C)[C@]1(C)CC2 : 33.7
CN1C(=O)CC(c2ccccc2)C1=O (configuration not stated) [phensuximide] : 2.55

Request: Any idea what inhibition of SARS-CoV-2 cytopathic effect was measured for CN(C)CCOC(C)(c1ccccc1)c1ccccn1 (configuration not stated) ?
Response: 1.53

Request: Any idea what inhibition of SARS-CoV-2 cytopathic effect was measured for `Nc1ncnc2c1ncn2CCOCP(=O)(O)O` ?
Response: 0.75

Request: Any idea what inhibition of SARS-CoV-2 cytopathic effect was measured for CC(Cc1cccc(C(F)(F)F)c1)NCCOC(=O)c1ccccc1 (configuration not stated) ?
Response: -1.03

Request: Any idea what inhibition of SARS-CoV-2 cytopathic effect was measured for O=C(/C=C/c1ccccc1)NC(NC(=S)Nc1cccc2cccnc12)C(Cl)(Cl)Cl (configuration not stated) ?
Response: -0.28

Request: Any idea what inhibition of SARS-CoV-2 cytopathic effect was measured for `COc1cc2c(cc1Cc1cccc(Cl)c1F)c(=O)c(C(=O)O)cn2[C@H](CO)C(C)C` ?
Response: 1.67

Request: Any idea what inhibition of SARS-CoV-2 cytopathic effect was measured for `Cc1cc(Nc2ncc(Cl)c(Nc3ccccc3S(=O)(=O)C(C)C)n2)c(OC(C)C)cc1C1CCNCC1` ?
Response: -2.36

Request: Any idea what inhibition of SARS-CoV-2 cytopathic effect was measured for `Cc1ccc(O)c([C@H](CCN(C(C)C)C(C)C)c2ccccc2)c1` ?
Response: -3.34

Request: Any idea what inhibition of SARS-CoV-2 cytopathic effect was measured for COc1ccc(C(=O)CC2(O)C(=O)Nc3c(Cl)ccc(Cl)c32)cc1 (configuration not stated) ?
Response: 1.43

Request: Any idea what inhibition of SARS-CoV-2 cytopathic effect was measured for `Cn1c(=O)c2[nH]cnc2n(C)c1=O` ?
Response: -0.87

Request: Any idea what inhibition of SARS-CoV-2 cytopathic effect was measured for `Cc1ncc(OC[C@@]2(c3cccc(F)c3)C[C@H]2C(=O)Nc2ccc(F)cn2)c(C)n1` ?
Response: -4.61

Request: Any idea what inhibition of SARS-CoV-2 cytopathic effect was measured for CCC(C(=O)O)c1ccc(CC(C)C)cc1 (configuration not stated) ?
Response: 2.34

Request: Any idea what inhibition of SARS-CoV-2 cytopathic effect was measured for `Nc1nc(Cl)nc2c1ncn2[C@@H]1O[C@H](CO)[C@@H](O)[C@@H]1F` ?
Response: 2.37

Request: Any idea what inhibition of SARS-CoV-2 cytopathic effect was measured for `CCCCCCNC(=O)n1cc(F)c(=O)[nH]c1=O` ?
Response: 2.67

Request: Any idea what inhibition of SARS-CoV-2 cytopathic effect was measured for `COCCOc1ccc2c(c1)ncn2-c1ccc2cccc(N3CCC(N)CC3)c2n1` ?
Response: 1.12

Request: Any idea what inhibition of SARS-CoV-2 cytopathic effect was measured for `COc1ccc(-c2cc(=O)c3c(OC)c(OC)c(OC)c(OC)c3o2)cc1OC` ?
Response: -2.1

Request: Any idea what inhibition of SARS-CoV-2 cytopathic effect was measured for `O=CN1CCC(C(=O)NCCN2CCC(=C3c4ccccc4C=Cc4ccccc43)CC2)CC1` ?
Response: -2.21

Request: Any idea what inhibition of SARS-CoV-2 cytopathic effect was measured for `COc1ccc2cc1Oc1ccc(cc1)C[C@H]1c3cc(c(OC)cc3CCN1C)Oc1c(OC)c(OC)cc3c1[C@H](C2)N(C)CC3` ?
Response: -2.19

Request: Any idea what inhibition of SARS-CoV-2 cytopathic effect was measured for `O=C(Nc1cccc(Cl)c1)c1ccccn1` ?
Response: 0.62

Request: Any idea what inhibition of SARS-CoV-2 cytopathic effect was measured for `C=CC(=O)Nc1cccc(Nc2nc(Nc3ccc(N4CCN(C(C)=O)CC4)cc3OC)ncc2C(F)(F)F)c1` ?
Response: -2.42

Request: Any idea what inhibition of SARS-CoV-2 cytopathic effect was measured for `CCCSc1nc(N[C@@H]2C[C@H]2c2ccc(F)c(F)c2)c2nnn([C@@H]3C[C@H](OCCO)[C@@H](O)[C@H]3O)c2n1` ?
Response: 0.82
